The reported numbers originate from patent US20260028354A1.

# tgt: ER in T47D cells (Homo sapiens (Human), UniProt P03372)
# Sequence (P03372 whole entry): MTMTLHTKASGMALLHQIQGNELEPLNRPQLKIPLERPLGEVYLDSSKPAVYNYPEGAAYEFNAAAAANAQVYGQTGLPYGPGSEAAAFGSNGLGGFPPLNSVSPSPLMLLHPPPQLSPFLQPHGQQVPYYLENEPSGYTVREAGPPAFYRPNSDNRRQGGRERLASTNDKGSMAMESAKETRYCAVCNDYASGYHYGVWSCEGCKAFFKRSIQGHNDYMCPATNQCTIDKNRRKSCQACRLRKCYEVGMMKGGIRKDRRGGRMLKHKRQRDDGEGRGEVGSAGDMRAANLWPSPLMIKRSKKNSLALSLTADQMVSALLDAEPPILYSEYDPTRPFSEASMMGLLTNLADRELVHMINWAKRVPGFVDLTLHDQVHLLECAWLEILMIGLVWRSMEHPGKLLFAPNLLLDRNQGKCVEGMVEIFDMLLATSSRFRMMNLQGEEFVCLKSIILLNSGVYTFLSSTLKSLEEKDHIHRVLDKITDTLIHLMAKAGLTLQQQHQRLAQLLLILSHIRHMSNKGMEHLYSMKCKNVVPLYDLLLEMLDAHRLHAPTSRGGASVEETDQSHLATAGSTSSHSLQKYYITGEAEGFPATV
# procedure.text: In-cell Western (ICW) ER degradation assay in T47D cells
# Format: cell-based
# conditions.used: maximal ER degradation, 16 hrs treatment
recorded.metric: T47D Dmax

Illustrative cases are given below, each with its answer.
COc1cc(C2c3ccc(O)cc3CCC2c2ccccc2)c(F)cc1N1CCC(CN2CCN3c4ccc5c(c4OC[C@H]3C2)CN([C@H]2CCC(=O)NC2=O)C5=O)CC1 (stereo in doubt); A (“A”: >=75%)
O=C1CC[C@H](N2Cc3c(ccc4c3OC[C@H]3CN(CC5CC6COCC(C5)N6c5ccc([C@@H]6c7ccc(O)cc7CC[C@@H]6c6ccccc6)cc5)CCN43)C2=O)C(=O)N1 (stereo partly shown); B (“B”: >50 and <75%)
O=C1CC[C@H](N2Cc3cc4c(cc3C2=O)OCC42CCN(CC3CC4(CCN(c5ccc([C@@H]6c7ccc(O)cc7CC[C@@H]6c6ccccc6)cn5)CC4)C3)CC2)C(=O)N1; A (“A”: >=75%)
O=C1CC[C@H](N2Cc3cc4c(cc3C2=O)OCC42CCN(CC3CC4(CCN(c5ccc([C@H]6c7ccc(O)cc7CC[C@H]6c6ccccc6)cn5)CC4)C3)CC2)C(=O)N1; B (“B”: >50 and <75%)
O=C1CC[C@@H](N2Cc3cc4c(cc3C2=O)OC[C@H]2CN(CC3COC5(C3)CN(c3ccc([C@H]6c7ccc(O)cc7CC[C@H]6c6ccccc6)cc3)C5)CCN42)C(=O)N1 (stereo in doubt); A (“A”: >=75%)

Given the entry O=C1CC[C@H](N2Cc3c(ccc4c3OC[C@H]3CN(CC5COC6(C5)CN(c5ccc([C@@H]7c8ccc(O)cc8CC[C@@H]7c7ccccc7)cc5)C6)CCN43)C2=O)C(=O)N1 (single isomer, unassigned) [Compound A7] , report its measured T47D Dmax.
B (“B”: >50 and <75%)

Okay, and O=C1CC[C@H](N2Cc3cc4c(cc3C2=O)OCC42CCN(C[C@@H]3COC4(CCN(c5ccc([C@@H]6c7ccc(O)cc7CC[C@@H]6c6ccccc6)cc5)CC4)C3)CC2)C(=O)N1 ?
C (“C”: 25-50%)

Note, next up: COc1cc([C@@H]2c3ccc(O)cc3CC[C@@H]2c2ccccc2)c(F)cc1N1CCC(CN2CCN3c4ccc5c(c4OC[C@H]3C2)CN([C@H]2CCC(=O)NC2=O)C5=O)CC1 (single isomer, unassigned)
C (“C”: 25-50%)

And O=C1CC[C@H](N2Cc3c(ccc4c3OC[C@H]3CN(CC5COC6(C5)CN(c5ccc([C@@H]7c8ccc(O)cc8CC[C@@H]7c7ccccc7)cc5)C6)CCN43)C2=O)C(=O)N1 (single isomer, unassigned) [Compound A40] ?
C (“C”: 25-50%)

// same read-out, input: COc1cc(N2CCC3(CC2)CC(CN2CCC(c4ccc(NC5CCC(=O)NC5=O)cc4F)CC2)C3)ccc1[C@@H]1c2ccc(O)cc2CC[C@@H]1c1ccccc1 (stereo in doubt)
B (“B”: >50 and <75%)

###

# tgt: ER in T47D cells (Homo sapiens (Human), UniProt P03372)
# procedure.text: In-cell Western (ICW) ER degradation assay in T47D cells
# Format: cell-based
# conditions.used: ER degradation, 16 hrs treatment
recorded.metric: DC50

Sample records with DC50:
COc1cc(N2CCC3(CC2)CC(CN2CCC4(CC2)COc2c4ccc4c2CN([C@H]2CCC(=O)NC2=O)C4=O)CO3)ccc1[C@@H]1c2ccc(O)cc2CC[C@@H]1c1ccccc1 (some centres unmarked); 1 to 10 nM
O=C1CC[C@H](Nc2ccc(C3CCN(C[C@@H]4COC5(CCN(c6ccc([C@H]7c8ccc(O)cc8CC[C@H]7c7ccccc7)cc6)CC5)C4)CC3)cc2)C(=O)N1 (single isomer, unassigned); < 1 nM
COc1cc(N2CCC(CN3CCN4c5ccc6c(c5OC[C@@H]4C3)CN([C@@H]3CCC(=O)NC3=O)C6=O)CC2)ccc1[C@H]1c2ccc(O)cc2CC[C@H]1c1ccccc1 (stereo in doubt); < 1 nM
O=C1CC[C@H](N2Cc3c(ccc4c3OC[C@H]3CN(CC5COC6(C5)CN(c5ccc([C@H]7c8ccc(O)cc8CC[C@H]7c7ccccc7)cc5)C6)CCN43)C2=O)C(=O)N1 (single isomer, unassigned); < 1 nM
O=C1CC[C@H](N2Cc3cc4c(cc3C2=O)OC[C@H]2CN(C[C@H]3COC5(CCN(c6ccc([C@H]7c8ccc(O)cc8CC[C@H]7c7ccccc7)cc6)CC5)C3)CCN42)C(=O)N1 (single isomer, unassigned); 1 to 10 nM
COc1cc(N2CCC3(CC2)CC(CN2CCC(c4ccc(N[C@H]5CCC(=O)NC5=O)cc4)CC2)C3)c(F)cc1[C@@H]1c2ccc(O)cc2CC[C@@H]1c1ccccc1 (single isomer, unassigned); < 1 nM
O=C1CC[C@H](NC(=O)c2ccc3c(n2)OC[C@H]2CN(CC4CC5(CCN(c6ccc([C@H]7c8ccc(O)cc8CC[C@H]7c7ccccc7)cn6)CC5)C4)CCN32)C(=O)N1 (single isomer, unassigned); > 100 nM
COc1cc(N2CCC(CN3CC[C@]4(c5ccc(N[C@@H]6CCC(=O)NC6=O)cc5)[C@H](C3)C4(F)F)CC2)ccc1[C@@H]1c2ccc(O)cc2CC[C@@H]1c1ccccc1; < 1 nM
O=C1CC[C@@H](Nc2ccc(C3CCN(C[C@@H]4COC5(CCN(c6ccc([C@H]7c8ccc(O)cc8CC[C@H]7c7ccccc7)cc6)CC5)C4)CC3)c(F)c2)C(=O)N1 (single isomer, unassigned); > 100 nM
O=C1CCC(NC(=O)c2ccc3c(n2)OC[C@H]2CN(CC4CCN(c5ccc([C@@H]6c7ccc(O)cc7CC[C@@H]6c6ccccc6)cc5)CC4)CCN32)C(=O)N1 (some centres unmarked); < 1 nM

Lab note: need DC50 for O=C1CC[C@H](N2Cc3c(ccc4c3OCC43CCN(CC4CC5(CCN(c6ccc([C@@H]7c8ccc(O)cc8CC[C@@H]7c7ccccc7)cn6)CC5)C4)CC3)C2=O)C(=O)N1 on ER in T47D cells (Homo sapiens (Human), UniProt P03372), anyone have it?
< 1 nM

COc1cc(N2CCC(CN3CC[C@@]4(c5ccc(N[C@H]6CCC(=O)NC6=O)cc5)C(C3)C4(F)F)CC2)ccc1[C@@H]1c2ccc(O)cc2CC[C@@H]1c1ccccc1 (some centres unmarked) , same question.
1 to 10 nM

And O=C1CCC(NC(=O)c2ccc3c(n2)OC[C@H]2CN(CC4CCN(c5ccc([C@H]6c7ccc(O)cc7CC[C@H]6c6ccccc6)cc5)CC4)CCN32)C(=O)N1 (stereo in doubt) ?
< 1 nM

Entry to check: O=C1CC[C@H](N2Cc3c(ccc4c3OC[C@H]3CN(CC5COC6(C5)CN(c5ccc([C@@H]7c8ccc(O)cc8CC[C@@H]7c7ccccc7)cc5)C6)CCN43)C2=O)C(=O)N1 (single isomer, unassigned) [Compound A7]
< 1 nM
